system: VZV in MeWo or MRC5 cells; test: Viral qPCR assay VZV (V0/V1, V2/V3), EC50; assay type: cell-based; details: Human alphaherpesvirus 3, MeWo, MEWO cells, 10%; read-out: VZV Cell (EC50) MEWO 10%
measurement_name: EC50 (nM)
The reply should contain only the number, in nM.

[[record]]
molecule = "O=C(NCc1ccc(Cl)cc1)c1cc(O[C@H]2CCN3C(=O)OCC[C@@H]3C2)c(-c2cnn(C(F)F)c2)cn1 (single isomer, unassigned)"
measurement_name = "EC50"
numeric_readout = 61.1

[[record]]
molecule = "Cn1cc(-c2cnc(C(=O)NCc3ccc(Cl)cc3F)cc2O[C@H]2CCN3C(=O)OC[C@@H]3C2)cn1"
measurement_name = "EC50"
numeric_readout = 95.5


Consider now this further molecule.
Please report EC50 for the following molecule: O=C(NCc1ccc(Cl)cn1)c1cc(O[C@H]2CCN3C(=O)OC[C@@H]3C2)c(-c2cnn(C(F)F)c2)cn1 737

====

Listed here are compounds together with their documented pIC50.
target: Human cytomegalovirus DNA polymerase (Human cytomegalovirus); construct: made in house; host or cells: SF21 insect cells (baculovirus vector); assay: HCMV polymerase assay (AlphaLISA, IC50); assay type: biochemical; conditions: polymerase assay of Example 190
Expect pIC50 as a plain number equal to -log10 of the molar concentration.

Reference set, count: 5
[[record]]
compound = "CC(=O)N1CCC(Oc2cc(C(=O)NCc3ccc(Cl)cc3)ncc2-c2ccn(CS(C)(=O)=O)n2)CC1"
measurement_name = "pIC50"
numeric_readout = 7.16

[[record]]
compound = "CC(=O)N1CCC(Oc2cc(C(=O)NCc3ccc(Cl)cc3)ncc2-c2cn(C)cn2)CC1"
measurement_name = "pIC50"
numeric_readout = 7.43

[[record]]
compound = "CN1CCC(N2CCC(C(=O)OCN(Cc3ccc(Cl)cc3)C(=O)c3cc(O[C@H]4CCN5C(=O)OC[C@@H]5C4)c(-c4cnn(C(F)F)c4)cn3)CC2)CC1"
measurement_name = "pIC50"
numeric_readout = 6.05

[[record]]
compound = "CC(C)(O)Cc1cnc(C(=O)NCc2ccc(Cl)cc2)cc1O[C@H]1CCN2C(=O)OC[C@@H]2C1"
measurement_name = "pIC50"
numeric_readout = 7.87

[[record]]
compound = "O=C(NCc1ccc(Cl)cc1)c1cc(O[C@H]2CCN3C(=O)OC[C@@H]3C2)c(N2CC(F)C2)cn1"
measurement_name = "pIC50"
numeric_readout = 7.42


Specify pIC50 for CC(C)(O)C1CCN(c2cnc(C(=O)NCc3ccc(Cl)cc3)cc2O[C@H]2CCN3C(=O)OC[C@@H]3C2)C1 (single isomer, unassigned) [Compound 117-2] and stop. 7.92

Fill in pIC50 for record O=C(NCc1ccc(Cl)cc1)c1cc(O[C@H]2CCN3C(=O)OC[C@@H]3C2)c(-c2cnn(CCO)c2)cn1 8.16

====

Entries annotated with measured IC50
target: Human cytomegalovirus DNA polymerase (Human cytomegalovirus, UniProt P08546)
Sequence (P08546 whole entry): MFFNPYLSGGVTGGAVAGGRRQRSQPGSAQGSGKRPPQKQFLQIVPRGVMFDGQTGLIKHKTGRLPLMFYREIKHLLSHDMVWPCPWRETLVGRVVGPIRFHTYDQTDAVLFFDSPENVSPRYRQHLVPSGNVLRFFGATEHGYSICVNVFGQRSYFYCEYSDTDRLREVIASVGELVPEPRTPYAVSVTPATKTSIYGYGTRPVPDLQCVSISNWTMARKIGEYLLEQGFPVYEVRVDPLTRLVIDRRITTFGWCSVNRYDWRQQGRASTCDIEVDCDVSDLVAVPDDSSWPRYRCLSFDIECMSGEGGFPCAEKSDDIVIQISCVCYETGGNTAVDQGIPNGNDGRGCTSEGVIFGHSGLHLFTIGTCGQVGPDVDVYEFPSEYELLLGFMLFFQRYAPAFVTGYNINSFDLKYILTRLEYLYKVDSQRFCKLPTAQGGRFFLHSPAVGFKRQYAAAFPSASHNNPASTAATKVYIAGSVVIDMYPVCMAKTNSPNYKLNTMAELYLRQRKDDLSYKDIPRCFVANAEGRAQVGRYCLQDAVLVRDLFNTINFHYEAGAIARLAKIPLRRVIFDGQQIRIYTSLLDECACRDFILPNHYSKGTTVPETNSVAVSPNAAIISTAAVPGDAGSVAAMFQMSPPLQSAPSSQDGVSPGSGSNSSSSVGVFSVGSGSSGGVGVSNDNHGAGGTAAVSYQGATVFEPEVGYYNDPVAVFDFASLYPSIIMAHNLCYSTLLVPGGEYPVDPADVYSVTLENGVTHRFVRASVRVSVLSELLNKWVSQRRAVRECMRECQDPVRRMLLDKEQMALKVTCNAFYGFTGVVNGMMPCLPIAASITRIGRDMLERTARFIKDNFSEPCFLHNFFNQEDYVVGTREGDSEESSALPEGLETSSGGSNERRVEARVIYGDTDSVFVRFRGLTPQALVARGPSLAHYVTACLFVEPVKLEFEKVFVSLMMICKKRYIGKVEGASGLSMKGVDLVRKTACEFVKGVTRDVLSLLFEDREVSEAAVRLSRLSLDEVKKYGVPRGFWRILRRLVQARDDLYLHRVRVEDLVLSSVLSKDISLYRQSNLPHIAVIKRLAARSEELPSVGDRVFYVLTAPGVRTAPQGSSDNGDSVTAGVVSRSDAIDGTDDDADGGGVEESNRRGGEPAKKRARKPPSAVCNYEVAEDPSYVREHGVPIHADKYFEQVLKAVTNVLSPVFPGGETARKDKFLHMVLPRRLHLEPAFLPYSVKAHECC
Remember to follow the number with its unit.

Some entries whose results are on file:
[[record]]
item_smiles = "Cc1cnc(-c2cnc(C(=O)NCc3ccc(Cl)cc3)cc2O[C@H]2CCN3C(=O)OC[C@@H]3C2)s1"
assayed_target = "Human cytomegalovirus DNA polymerase (Human cytomegalovirus, UniProt P08546)"
result = "5 nM"

[[record]]
item_smiles = "Cn1cc(-c2cnc(C(=O)NCc3ccc(F)c(F)c3F)cc2O[C@H]2CCN3C(=O)OC[C@@H]3C2)cn1"
assayed_target = "Human cytomegalovirus DNA polymerase (Human cytomegalovirus, UniProt P08546)"
result = "31.7 nM"

[[record]]
item_smiles = "CC(=O)N1CCC(Oc2cc(C(=O)NCc3ccc(Cl)cc3)ncc2C#Cc2cc(C)ccn2)CC1"
assayed_target = "Human cytomegalovirus DNA polymerase (Human cytomegalovirus, UniProt P08546)"
result = "209 nM"


Please turn your attention to the following entry.
Look up and report measured IC50 for this entry: COCCOC(=O)N(Cc1ccc(Cl)cc1)C(=O)c1cc(O[C@H]2CCN3C(=O)OC[C@@H]3C2)c(-c2cnn(C(F)F)c2)cn1 107 nM

Data provenance is patent US20240067657A1.
